- assayed target: delF508-CFTR (Homo sapiens, UniProt P13569, DEL508-508)
- Construct: expressed in transfected cells
- Sequence (P13569 with tags, fused parts or gaps DEL508-508): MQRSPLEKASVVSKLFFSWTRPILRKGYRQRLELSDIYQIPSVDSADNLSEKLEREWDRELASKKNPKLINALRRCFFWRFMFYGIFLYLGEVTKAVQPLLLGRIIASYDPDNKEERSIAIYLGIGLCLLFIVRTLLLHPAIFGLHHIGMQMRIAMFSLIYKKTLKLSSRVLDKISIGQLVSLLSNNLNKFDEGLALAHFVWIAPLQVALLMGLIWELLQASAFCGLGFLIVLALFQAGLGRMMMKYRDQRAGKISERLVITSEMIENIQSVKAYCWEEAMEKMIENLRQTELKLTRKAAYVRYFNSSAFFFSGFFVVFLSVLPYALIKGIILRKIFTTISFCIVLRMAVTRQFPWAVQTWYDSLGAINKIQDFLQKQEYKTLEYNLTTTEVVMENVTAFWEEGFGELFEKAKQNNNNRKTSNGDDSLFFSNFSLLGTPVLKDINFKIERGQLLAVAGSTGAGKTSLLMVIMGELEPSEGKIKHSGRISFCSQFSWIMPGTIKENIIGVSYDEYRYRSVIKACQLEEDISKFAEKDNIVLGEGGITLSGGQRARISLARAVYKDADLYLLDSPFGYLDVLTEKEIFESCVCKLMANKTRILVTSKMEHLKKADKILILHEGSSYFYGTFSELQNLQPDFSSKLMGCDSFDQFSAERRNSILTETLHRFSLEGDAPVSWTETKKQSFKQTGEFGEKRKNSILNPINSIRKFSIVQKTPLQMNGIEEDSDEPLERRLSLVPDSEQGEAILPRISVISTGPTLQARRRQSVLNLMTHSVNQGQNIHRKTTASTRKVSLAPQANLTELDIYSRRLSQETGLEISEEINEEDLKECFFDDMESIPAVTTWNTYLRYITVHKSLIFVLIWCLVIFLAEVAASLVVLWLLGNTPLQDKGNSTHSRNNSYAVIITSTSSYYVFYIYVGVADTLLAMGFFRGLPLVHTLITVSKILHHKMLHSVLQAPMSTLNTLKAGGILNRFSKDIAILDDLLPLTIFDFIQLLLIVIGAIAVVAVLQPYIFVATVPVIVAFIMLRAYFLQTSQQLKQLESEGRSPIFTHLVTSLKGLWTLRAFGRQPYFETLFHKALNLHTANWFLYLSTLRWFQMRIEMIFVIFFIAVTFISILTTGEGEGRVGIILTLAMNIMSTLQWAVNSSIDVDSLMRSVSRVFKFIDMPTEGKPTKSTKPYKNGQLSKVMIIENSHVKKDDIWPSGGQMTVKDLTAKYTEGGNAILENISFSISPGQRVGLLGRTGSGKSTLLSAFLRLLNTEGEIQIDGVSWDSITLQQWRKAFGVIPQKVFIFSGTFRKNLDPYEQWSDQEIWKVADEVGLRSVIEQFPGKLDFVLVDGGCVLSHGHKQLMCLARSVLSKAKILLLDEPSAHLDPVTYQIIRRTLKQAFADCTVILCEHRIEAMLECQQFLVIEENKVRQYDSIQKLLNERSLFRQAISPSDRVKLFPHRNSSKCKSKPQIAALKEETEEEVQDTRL
- protocol text: Measurement of delF508-CFTR-HRP surface expression in CFBE41o- cells
- Format: cell-based
- assay context: CFBE41o-; efficacy relative to reference compound 3-(6-(1-(2,2-difluorobenzo[d][1,3]dioxol-5-yl)cyclopropane-1-carboxamido)-3-methylpyridin-2-yl)benzoic acid; read-out: DelF508-CFTR-HRP Amax %
- Protocol: Measurement of deIF508-CFTR-HRP Surface Expression in CFBE41o-Cells This assay quantifies the cell surface expressions of the mutant CFTR channel using an extracellular HRP tag. […] The median activity for the lowest concentration of the compounds on each assay plate was calculated and this value was used to normalize the signal for each well on the respective plate. […] The median value was determined and used to calculate compound activities as described below. […]
recorded endpoint: Emax (%)

>>> recorded_result("O=S1(=O)Nc2ccc(C(F)(F)F)c(n2)-c2ccccc2CCC(O)CNc2cccc1n2 (stereo not shown)")
119
>>> recorded_result("O=S1(=O)Nc2ccc(C(F)(F)F)c(n2)-c2ccccc2CCCCCCNc2cccc1n2")
583
>>> recorded_result("O=C1C2CCCCC2C(=O)N1CCCN1CCCCCc2ccccc2-c2nc(ccc2C(F)(F)F)NS(=O)(=O)c2cccc1n2 (stereo not shown)")
410
>>> recorded_result("O=S1(=O)Nc2ccc(Cl)c(n2)-c2ccccc2CCCCOc2cccc1n2")
644
>>> recorded_result("CC1(C)OCC(CN2CCCCCc3ccccc3-c3nc(ccc3C(F)(F)F)NS(=O)(=O)c3cccc2n3)O1 (stereo not shown)")
651
>>> recorded_result("O=S1(=O)Nc2ccc(Cl)c(n2)-c2ccccc2CCCCCN(CCCO)c2cccc1n2")
448
>>> recorded_result("O=C1c2ccccc2C(=O)N1CCCN1CCCCCc2ccccc2-c2nc(ccc2C(F)(F)F)NS(=O)(=O)c2cccc1n2")
569
